All values here come from ChEMBL document CHEMBL1777800.

- Tested on: Mus musculus
- experimental.details: Antiinflammatory activity in BALB/c mouse assessed as inhibition of LPS-induced TNFalpha production in plasma at 100 mg/kg, po by ELISA
- Format: functional
Here the recorded inhibition in vivo at 100 mg/kg is given for each entry.
// return numeric value only (unit: %, not printed)

COc1ccc(CCC(=O)/C=C/CCc2cccnc2)cc1OC :: 50

INPUT: Check the records and state inhibition in vivo at 100 mg/kg for COc1ccc(CCC(=O)/C=C/CCc2cccnc2)c(OC)c1
OUTPUT: 79

INPUT: Check the records and state inhibition in vivo at 100 mg/kg for COc1ccc(COc2cc(CCC(=O)CC(O)CCc3cccnc3)ccc2OC)cc1 (centres undefined)
OUTPUT: 71

INPUT: Check the records and state inhibition in vivo at 100 mg/kg for COc1ccc(COc2ccc(CCC(=O)/C=C/CCc3cccnc3)cc2OC)cc1
OUTPUT: 75

====

- Tested on: PBMC
- experimental.details: Cytotoxicity against human PBMC by MTS assay
- Format: cell-based
Here the recorded pIC50 is given for each entry.
The value called pIC50 is obtained by taking minus log10 of the concentration in mol/L.

COc1ccc(CCC(=O)/C=C/CCc2cccnc2)c(OC)c1 :: 4.42

INPUT: Retrieve pIC50 on PBMC; query COc1ccc(CCC(=O)/C=C/CCc2cccnc2)cc1OC
OUTPUT: 4.10
